studySystem: T1, human TNFR1 on MRC-5 cells (human, UniProt P19438 30-455)
T1 sequence (looked up): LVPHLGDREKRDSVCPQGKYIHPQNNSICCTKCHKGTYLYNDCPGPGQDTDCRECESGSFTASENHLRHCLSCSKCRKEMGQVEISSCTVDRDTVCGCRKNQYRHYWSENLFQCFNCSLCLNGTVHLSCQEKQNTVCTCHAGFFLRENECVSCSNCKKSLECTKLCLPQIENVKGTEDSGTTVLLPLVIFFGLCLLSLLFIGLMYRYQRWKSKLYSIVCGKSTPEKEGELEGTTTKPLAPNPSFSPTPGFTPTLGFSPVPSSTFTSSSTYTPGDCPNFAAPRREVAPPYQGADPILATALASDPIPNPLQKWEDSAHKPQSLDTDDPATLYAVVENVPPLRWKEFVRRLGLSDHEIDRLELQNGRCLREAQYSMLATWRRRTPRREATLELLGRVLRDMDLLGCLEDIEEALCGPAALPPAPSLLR
protocolDetails: cell-based or functional assay
metric: ND50 (MRC5) (nM)
Entry rule: numbers only, all in nM.

Param item = DMS0169 (bispecific antibody, anti-TNFR1 dAb / AlbudAb in-line fusion) EVQLLESGGGLVQPGGSLRLSCAASGFTFVKYSMGWVRQAPGKGLEWVSQISNTADRTYYAHSVKGRFTISRDNSKNTLYLQMNSLRAEDTAVYYCAIYTGRWVPFEYWGQGTLVTVSSASTSGPSDIQMTQSPSSLSASVGDRVTITCRASRPIGTMLSWYQQKPGKAPKLLILFGSRLQSGVPSRFSGSGSGTDFTLTISSLQPEDFATYYCAQAGTHPTTFGQGTKVEIKRAAAEQKLISEEDLN ; retrieve measured ND50 (MRC5). 2.7

Reference source for all entries: patent US20120107330A1
